Origin of values: ChEMBL document CHEMBL2401638

Tested on: Staphylococcus aureus
Experiment: Antibacterial activity against Staphylococcus aureus MTCC 96 assessed as growth inhibition by broth microdilution method
Assay type: functional

compound | units-symbol | MIC
C=CCn1c(=O)c(C2C(C(=O)OCC)=C(N)N(NC(=O)c3ccncc3)C3=C2C(=O)CC(C)(C)C3)cc2cc(C)ccc21 (stereo not drawn) | µg/mL | 125
C=CCn1c(=O)c(C2C(C(=O)OC(C)C)=C(N)N(NC(=O)c3ccncc3)C3=C2C(=O)CCC3)cc2ccccc21 (stereo not drawn) | µg/mL | 500
C=CCn1c(=O)c(C2C(C(=O)OC(C)C)=C(N)N(NC(=O)c3ccncc3)C3=C2C(=O)CC(C)(C)C3)cc2cc(C)ccc21 (stereo not drawn) | µg/mL | 500
C=CCn1c(=O)c(C2C(C(=O)OCC)=C(N)N(NC(=O)c3ccncc3)C3=C2C(=O)CCC3)cc2cc(Cl)ccc21 (stereo not drawn) | µg/mL | 100
C=CCn1c(=O)c(C2C(C(=O)OC)=C(N)N(NC(=O)c3ccncc3)C3=C2C(=O)CC(C)(C)C3)cc2cc(OC)ccc21 (stereo not drawn) | µg/mL | 250
C=CCn1c(=O)c(C2C(C(=O)OC)=C(N)N(NC(=O)c3ccncc3)C3=C2C(=O)CCC3)cc2ccccc21 (stereo not drawn) | µg/mL | 125
C=CCn1c(=O)c(C2C(C(=O)OC)=C(N)N(NC(=O)c3ccncc3)C3=C2C(=O)CCC3)cc2cc(Cl)ccc21 (stereo not drawn) | µg/mL | 250
C=CCn1c(=O)c(C2C(C(=O)OC(C)C)=C(N)N(NC(=O)c3ccncc3)C3=C2C(=O)CCC3)cc2cc(Cl)ccc21 (stereo not drawn) | µg/mL | 200
C=CCn1c(=O)c(C2C(C(=O)OC)=C(N)N(NC(=O)c3ccncc3)C3=C2C(=O)CC(C)(C)C3)cc2ccccc21 (stereo not drawn) | µg/mL | 200
C=CCn1c(=O)c(C2C(C(=O)OCC)=C(N)N(NC(=O)c3ccncc3)C3=C2C(=O)CCC3)cc2cc(OC)ccc21 (stereo not drawn) | µg/mL | 125
C=CCn1c(=O)c(C2C(C(=O)OC(C)C)=C(N)N(NC(=O)c3ccncc3)C3=C2C(=O)CCC3)cc2cc(OC)ccc21 (stereo not drawn) | µg/mL | 250
O=C(O)c1cn(C2CC2)c2cc(N3CCNCC3)c(F)cc2c1=O | µg/mL | 50
C=CCn1c(=O)c(C2C(C(=O)OCC)=C(N)N(NC(=O)c3ccncc3)C3=C2C(=O)CC(C)(C)C3)cc2cc(OC)ccc21 (stereo not drawn) | µg/mL | 200
